B1: MED27 (parent)
chain: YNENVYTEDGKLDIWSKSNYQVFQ

variants of: B1; assay: protein stability index of a GFP-peptide fusion (GPS, HEK-293T) (PSI 1-6); higher = more stable; settings: c terminus: a fixed tail appended;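 note: lentivirally expressed fusions sorted by FACS into six bins by GFP to DsRed ratio, PSI derived from sequencing read proportions per bin multiplied by bin number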
// protein stability index lookup, one value per entry
Lab note: write the figure by itself, no unit.

Tell me protein stability index reported for `N19I` 1.6
